assay: budding yeast growth modifiers under rapamycin – strain BY4716, OD600, 96 h, primary screen (AID 1091); further: test concentration not given here; details: S. cerevisiae BY4716 + rapamycin, higher = more signal, called active from +8 up or from −8 down
This listing pairs molecules with measured z-score.
Form: value (number only, do not type unit).

# example entries with known answers
Short answer for CCCC=C(CCC)[C@@H](NC(=O)c1cccs1)c1ccc(C(=O)OC)cc1 : z-score was -0.0964

Short answer for CCCC=C(CCC)[C@@H](NC(=O)C(C)(C)C)c1ccc(C(=O)OC)cc1 : z-score was 1.68

Short answer for C=CCNC(=O)[C@@H]1[C@H]2C(=O)O[C@H](c3ccccc3)[C@H](c3ccccc3)N2[C@H](c2ccccc2OCCO)[C@@]12C(=O)Nc1ccc(C#CCCO)cc12 : z-score was 3.43

Short answer for CN(C)C(=O)[C@@]1(Cc2ccccc2)N=C(c2ccc(OCCCO)cc2)O[C@H]1c1ccccc1 : z-score was 0.221

Short answer for O=C1N(CCS(=O)(=O)c2ccccc2)c2ccccc2[C@H]2OC(c3ccc(OCCCO)cc3)=N[C@@]12Cc1ccccc1 : z-score was 5.03

---
Short answer for CC#CCO[Si](C#Cc1ccccc1)(C(C)C)C(C)C : z-score was -1.86

Short answer for COC(=O)[C@@]1(Cc2ccccc2)[C@H]2c3cc(C(=O)N4CCCC4)n(CCc4ccccn4)c3C[C@H]2CN1C(=O)c1ccccc1 : z-score was 0.0746

Short answer for C#CCN(Cc1ccccc1Br)[C@H](/C=C/c1ccccc1)[C@@H](O)Cc1ccccc1 : z-score was 1.38

Short answer for O=C1NC(=O)C2C1C=CC(C(O)c1ccco1)N2Nc1ccc(Cl)cc1Cl (centres undefined) : z-score was -0.647

====

experiment: binders of probe aHhip on microarray, primary screen, stem cell growth factor project, biochemical, small-molecule microarray, fluorescence 635/667 (AID 1087); details: higher = more signal;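 further: score merges spot fluorescence at 667nm with spot signal to noise ratio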
This listing pairs molecules with measured composite z-score.
Form: value (number only, do not type unit).

Short answer for N[C@@H](Cc1ccccc1)C(=O)NCc1cn(Cc2ccccc2)nn1 : composite z-score was -0.0296

====

This listing pairs compounds with measured composite z-score.
target: E3 ubiquitin-protein ligase XIAP (Homo sapiens) (UniProt P98170); test: small molecules binding XIAP protein – biophysical, small-molecule microarray, fluorescence 635 nm, primary screen (AID 1181); conditions: higher = more signal;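 further: score merges 667 nm emission and signal to noise over triplicate slides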
Sequence (P98170 whole entry, looked up): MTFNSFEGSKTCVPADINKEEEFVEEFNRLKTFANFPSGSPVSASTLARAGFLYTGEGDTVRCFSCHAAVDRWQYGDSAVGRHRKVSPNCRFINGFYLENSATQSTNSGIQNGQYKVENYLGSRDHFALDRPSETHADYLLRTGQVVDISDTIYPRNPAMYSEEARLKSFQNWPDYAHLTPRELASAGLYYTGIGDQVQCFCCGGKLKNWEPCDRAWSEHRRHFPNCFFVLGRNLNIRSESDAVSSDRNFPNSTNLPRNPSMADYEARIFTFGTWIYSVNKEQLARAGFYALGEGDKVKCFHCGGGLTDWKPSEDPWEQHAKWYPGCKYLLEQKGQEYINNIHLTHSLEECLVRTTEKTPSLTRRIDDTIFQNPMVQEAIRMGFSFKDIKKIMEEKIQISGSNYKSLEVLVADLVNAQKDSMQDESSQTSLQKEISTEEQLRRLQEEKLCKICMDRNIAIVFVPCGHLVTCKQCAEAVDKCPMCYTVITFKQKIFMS
Form: value (number only, do not type unit).

# example entries with known answers
Short answer for COC(=O)C1(CC(C)C)C=C2C(=C(c3ccccc3)C(=O)C2C)CN1 (configuration not stated) : composite z-score was -0.0133

Short answer for CCOC(=O)C=Cc1cccc(C)c1O : composite z-score was 0.0533

Short answer for CCCCCN1CC=CC23O[C@@H]4/C=C\CCCOC(=O)C4[C@H]2C(=O)N(C(C)CO)[C@@H]3C1=O (some centres not stated) : composite z-score was -0.162

Short answer for [N-]=[N+]=Nc1ccccc1[C@@H]1OC(c2ccc(OCCCO)cc2)=N[C@]1(Cc1ccccc1)C(=O)N1CCCCC1 : composite z-score was 0.0512

Short answer for COc1cc2c(cc1O)C=[N+](Cc1sc3ccccc3c1Cl)CC2 : composite z-score was 0.158

Short answer for C=CC[C@]1(C(=O)N2CCCCC2)N=C(c2ccc(OCCCO)cc2)O[C@H]1c1ccccc1CN=[N+]=[N-] : composite z-score was 0.354

---
Short answer for CCCCC[C@H]1OC[C@@]23C=C(Br)[C@@H](CC12)[C@@]1(CO1)C3=O (some centres not stated) : composite z-score was 0.144

Short answer for COc1cc(NN2C(C(O)c3cc(OC)c(OC)c(OC)c3)C=CC3C(=O)N(C)C(=O)C32)cc(OC)c1OC (configuration not stated) : composite z-score was -0.144

Short answer for CC(C)NC(=O)[C@@]1(c2ccc([N+](=O)[O-])cc2)CC(=O)N(C2CCCCC2)[C@@H]1c1ccc(CO)cc1 : composite z-score was 0.112

Short answer for COc1ccc([Si](C)(C)[C@@H]2[C@@H](CC(=O)N3CCC[C@H]3CO)O[C@]3(C(=O)N(Cc4cccc(N5C(=O)COc6ccccc65)c4)c4ccccc43)[C@H]2C)cc1 : composite z-score was -0.102

Short answer for Cc1ccc(NN2C(C(O)c3c(F)cccc3Cl)C=CC3C(=O)N(C4CCCCC4)C(=O)C32)cc1 (configuration not stated) : composite z-score was 0.122

Short answer for CCOC(=O)C[C@H]1[C@H](OC(=O)c2ccc(-c3ccccc3)cc2)[C@@H](NC(=O)CC(C)C)c2cc(OCCCO)ccc2N1C(=O)c1ccc2ccccc2n1 : composite z-score was -0.134

Short answer for CCOc1cc(C(O)C2C=CC3C(=O)NC(=O)C3N2Nc2ccc(Cl)cc2Cl)ccc1O (configuration not stated) : composite z-score was 0.659

Short answer for COc1ccc(CCNC(=O)[C@@]2(Sc3ccc(C)cc3)CC(=O)N(Cc3ccccc3C(F)(F)F)[C@@H]2c2ccc(CO)cc2I)cc1 : composite z-score was 0.1

Short answer for CC[C@@H]1O[Si](C(C)C)(C(C)C)c2c1cc(-c1cc(C)c(OC)c(C)c1)nc2-c1ccc(Oc2ccccc2)cc1 : composite z-score was 0.113

Short answer for CCCNC(=O)[C@@]1(C)c2ccccc2C(=O)N(c2ccc(C)cn2)[C@H]1c1ccc(CO)cc1 : composite z-score was -0.127

Short answer for NC(=O)[C@H]1[C@@H]2C(=O)O[C@@H](c3ccccc3)[C@@H](c3ccccc3)N2[C@@H](c2ccc(OCCO)cc2)[C@]12C(=O)Nc1ccc(C#CCCO)cc12 : composite z-score was -0.0884

Origin of values: PubChem BioAssay
